Overview of reported pKi across a group of compounds:
assay procedure: DRUGMATRIX: GABAA, Flunitrazepam, Central radioligand binding (ligand: [3H] Flunitrazepam)
Assay type: cell membranes, Rattus norvegicus, Wistar, Brain, Membrane
reported conditions: Not Active = under 50% inhibition at 10 µM; read-out: Ki
Note on units: pKi is unitless, being -log10 of a concentration expressed in mol/L.

O=c1cc(N2CCOCC2)oc2c(-c3ccccc3)cccc12	4.76
O=C1Nc2ccc(Cl)cc2C(c2ccccc2Cl)=NC1O (stereo not given)	8.29
O=C1CN=C(c2ccccc2Cl)c2cc([N+](=O)[O-])ccc2N1	8.40
Cc1nnc2n1-c1ccc(Cl)cc1C(c1ccccc1)=NC2	7.87

pKi for C#CC1(O)CC[C@H]2[C@@H]3CCC4=CC(=O)CC[C@@H]4[C@H]3CC[C@@]21CC (stereo not given in full) ?
5.72

* * *

assay procedure: DRUGMATRIX: Sodium/nucleoside co-transporter radioligand binding (ligand: nitrobenzylthioinosine)
Assay type: cell membranes, Cavia porcellus, Dunkin-Hartley, Cerebral cortex, Membrane
reported conditions: Not Active = under 50% inhibition at 10 µM
measured property: IC50

Solved entries (count: 5):
COc1cc2nc(N3CCN(C(=O)C4CCCO4)CC3)nc(N)c2cc1OC (stereo unspecified)	Not Active
O=c1cc(N2CCOCC2)oc2c(-c3ccccc3)cccc12	Not Active
CCN(CC)CCNC(=O)c1cc(S(C)(=O)=O)ccc1OC [TIAPRIDE]	Not Active
CCC1(CCC(C)C)C(=O)NC(=O)NC1=O	Not Active
CCN(CC)CCOCCC1=CCC2CC1C2(C)C (stereo unspecified)	Not Active

IC50 for C[C@]12C=CC(=O)C=C1CC[C@@H]1[C@@H]2[C@@H](O)C[C@@]2(C)[C@H]1CC[C@]2(O)C(=O)CO ?
Not Active

Entry to check: C[C@@H]1O[C@@H](O[C@@H]2C=C3CC[C@@H]4[C@H](CC[C@]5(C)[C@@H](c6ccc(=O)oc6)CC[C@]45O)[C@@]3(C)CC2)[C@H](O)[C@H](O)[C@H]1O
Not Active

Entry to check: CC(C)=CCC/C(C)=C/CO
Not Active

Entry to check: Clc1ccccc1CN1CCc2sccc2C1
Not Active

Entry to check: C[C@@H](CO)NC(=O)[C@@H]1C=C2c3cccc4[nH]cc(c34)C[C@H]2N(C)C1
Not Active

Entry to check: O=C(O)c1cccnc1Nc1cccc(C(F)(F)F)c1
Not Active

Entry to check: CC(C)NCC(O)c1ccc(O)c(O)c1 (stereo unspecified)
Not Active

Entry to check: CCC(=O)O[C@]1(C(=O)CCl)[C@@H](C)C[C@H]2[C@@H]3CCC4=CC(=O)C=C[C@]4(C)[C@@]3(F)[C@@H](O)C[C@@]21C [CLOBETASOL PROPIONATE]
Not Active

Entry to check: C[C@@H]1C[C@H]2[C@@H]3CCC4=CC(=O)C=C[C@]4(C)[C@@]3(F)[C@@H](O)C[C@]2(C)[C@@]1(O)C(=O)CO
Not Active

Entry to check: COc1cc2nc(N3CCN(C(=O)c4ccco4)CC3)nc(N)c2cc1OC
Not Active

Entry to check: COc1cc(N)c(Cl)cc1C(=O)NC1CCN(CCCOc2ccc(F)cc2)CC1OC (stereo unspecified) [CISAPRIDE]
Not Active

Entry to check: CC[C@@H](C(=O)[C@@H](C)[C@@H](O)[C@H](C)[C@@H]1O[C@@H]([C@@H](CC)C(=O)O)CC[C@@H]1C)[C@H]1O[C@]2(C=C[C@@H](O)[C@]3(CC[C@@](C)([C@H]4CC[C@](O)(CC)[C@H](C)O4)O3)O2)[C@H](C)C[C@@H]1C
Not Active

Entry to check: COC(=O)Nc1nc2ccc([S+]([O-])c3ccccc3)cc2[nH]1 (stereo unspecified)
Not Active

Entry to check: N#Cc1ccc(C(c2ccc(C#N)cc2)n2cncn2)cc1
Not Active

Entry to check: Nc1cc(N2CCCCC2)nc(N)[n+]1[O-]
Not Active

Entry to check: CC(C)NCC(O)COc1cccc2[nH]ccc12 (stereo unspecified)
Not Active

Entry to check: CCN1CCC[C@H]1CNC(=O)c1cc(S(N)(=O)=O)ccc1OC [LEVOSULPIRIDE]
Not Active

Entry to check: CCN(CC)CC(=O)Nc1c(C)cccc1C
Not Active
